The reported measurements were obtained from ChEMBL document CHEMBL1649409.

PROTOCOL TEXT: Cytotoxicity against human lung fibroblast assessed as cell viability at 0.16 mM after 24 hrs by MTT assay
Type: cell-based
MEASUREMENT CONTEXT: human lung fibroblasts, read-out: Activity

CHEMICAL STRUCTURE: C/C(=N\c1nc2ccccc2[nH]1)c1ccc(Br)cc1
QUANTITY UNIT: %
viability at 24 h, 160 µM: 73.6

----------
Test system: Glycine max
PROTOCOL TEXT: Inhibition of soybean LOX at 0.01 mM
The source made the active and inactive calls. The rule behind the calls is not given here.

COMPOUND: CC(Cc1ccc(O)c(O)c1)C(C)Cc1ccc(O)c(O)c1 (configuration not stated)
inhibition: 40%
//
COMPOUND: C/C(=N\c1nc2ccccc2[nH]1)c1cccc(C)c1
inhibition: inactive
//
COMPOUND: C/C(=N\c1nc2ccccc2[nH]1)c1ccc(Br)cc1
inhibition: inactive
//
COMPOUND: C/C(=N\c1nc2ccccc2[nH]1)c1ccc(C)cc1
inhibition: inactive
//
COMPOUND: COc1cccc(C2=Nc3nc4ccccc4n3C(C)(c3cccc(OC)c3)C2=O)c1 (configuration not stated)
inhibition: inactive
//
COMPOUND: Cc1cccc(C2=Nc3nc4ccccc4n3C(C)(c3cccc(C)c3)C2=O)c1 (configuration not stated)
inhibition: inactive
//
COMPOUND: CC1(c2ccc(Br)cc2)C(=O)C(c2ccc(Br)cc2)=Nc2nc3ccccc3n21 (configuration not stated)
inhibition: 51%
//
COMPOUND: C/C(=N\c1nc2ccccc2[nH]1)c1ccc(Cl)cc1
inhibition: 62%
//
COMPOUND: C/C(=N\c1nc2ccccc2[nH]1)c1ccccc1
inhibition: inactive
//
COMPOUND: COc1ccc(/C(C)=N/c2nc3ccccc3[nH]2)cc1
inhibition: 22%
//
COMPOUND: COc1cccc(/C(C)=N/c2nc3ccccc3[nH]2)c1
inhibition: inactive
//
COMPOUND: C/C(=N\c1nc2ccccc2[nH]1)c1ccc2ccccc2c1
inhibition: 18%
//
COMPOUND: CC1(c2ccc(Cl)cc2)C(=O)C(c2ccc(Cl)cc2)=Nc2nc3ccccc3n21 (configuration not stated)
inhibition: inactive
//
COMPOUND: Cc1ccc(C2=Nc3nc4ccccc4n3C(C)(c3ccc(C)cc3)C2=O)cc1 (configuration not stated)
inhibition: inactive
//
COMPOUND: CC1(c2cccc(Br)c2)C(=O)C(c2cccc(Br)c2)=Nc2nc3ccccc3n21 (configuration not stated)
inhibition: inactive
//
COMPOUND: CC1(c2ccccc2)C(=O)C(c2ccccc2)=Nc2nc3ccccc3n21 (configuration not stated)
inhibition: 49%
//
COMPOUND: C/C(=N\c1nc2ccccc2[nH]1)c1cccc(Br)c1
inhibition: inactive
